- assayOverview: chemical genetic growth profiling, strain panel (AID 1159580);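 note: tested at 20 µM; growth read once vehicle control cultures reached saturation at 30 °C; 1 = growth at the plate median or of vehicle wells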
- measurementParameters: S. cerevisiae deletion strains, growth OD, locus YJR016C, strain ILV3, stronger effect = lower value
Screen size: about 5,500 compounds; about 2,000 (36%) were called active. Inconclusive results (about 18%) are left out. The list shows a part of the results.
Reported values of normalized growth for individual entries
Answer field: number only, no words.

Recorded results for 2 molecules are shown here.
molecule: O=C1OC(Nc2ccccc2SCc2ccccc2Cl)c2ccccc21 (stereo not given)
normalized growth: 0.98
--
molecule: CC(C)(C)c1cc(C(=O)/C(C#N)=N\Nc2ccc(Cl)cc2)no1
normalized growth: 0.914

Problem: Look up normalized growth for this molecule: `Cc1nc(C(F)(F)F)ccc1-c1nnc(SC(=O)c2ccc(Cl)cc2)o1`
Result: 0.87

Problem: Moving on to `Cc1nc(C(F)(F)F)ccc1C(=O)Sc1nnc(-c2ccc(C(F)(F)F)nc2C)o1`
Result: 0.952

Problem: Moving on to `CSc1nc(Sc2n[nH]c(-c3ccccc3)n2)cc(Sc2n[nH]c(-c3ccccc3)n2)n1`
Result: 1.01

Problem: Moving on to CCOC(=O)C(NC(C)=O)(Nc1ccc(F)c(Cl)c1)C(F)(F)F (stereo not given)
Result: 0.998

Problem: Moving on to `CC(=O)Oc1ccc2c(=O)c(Oc3ccc(Cl)cc3)c(C)oc2c1`
Result: 0.964

Problem: Moving on to `N#CC(C#N)=NNc1ccc(-n2ccc(C(F)(F)F)n2)cc1`
Result: 0.895

Problem: Moving on to `N#C/C(=N/Nc1ccc(C(F)(F)F)cc1)C(=O)C1CC1`
Result: 0.931

Problem: Moving on to CCC1(c2ccccc2)OC(c2cc(Cl)cc(Cl)c2O)Nc2ccccc21 (stereo not given)
Result: 0.962

====

Reported values of normalized growth for individual entries
- assayOverview: chemical genetic growth profiling, strain panel (AID 1159580)
- measurementParameters: S. cerevisiae deletion strains, growth OD, locus YGR078C, strain PAC10, stronger effect = lower value
Screen size: about 5,500 compounds; about 2,000 (36%) were called active. Another 18% or so got no clear call; they are omitted. Some of the results follow.
Answer field: number only, no words.

Recorded results for 3 compounds are shown here.
compound: Cc1c(-n2cccc2)cc2c(c1[N+](=O)[O-])C(C)(C)CC2(C)C
obsValue: 1.02
//
compound: CC(C)(C)c1cc(C(C)(C)C)n(-c2ccc([N+](=O)[O-])cc2)n1
obsValue: 1.01
//
compound: C=CCN1CC[C@]23CCCCC2[C@H]1Cc1ccc(O)cc13 (stereo not given in full)
obsValue: 0.995

Problem: Look up normalized growth for this compound: CC(=O)Oc1ccc2c(c1)CCC1C2CC[C@@]2(C)C1CC[C@@H]2OC(C)=O (stereo not given in full)
Result: 0.943

Problem: Moving on to `CC(C)(C)c1cc(C(C)(C)C)n(-c2ccc(N=Cc3cc(Br)cc(Br)c3O)cc2)n1`
Result: 0.0895

Problem: Moving on to `N#Cc1ccc2c(c1)N(CCCN1CCC(O)CC1)c1ccccc1S2`
Result: 0.998

====

- assayOverview: chemical genetic growth profiling, strain panel (AID 1159580)
- measurementParameters: S. cerevisiae deletion strains, growth OD, locus YMR078C, strain ctf18, stronger effect = lower value
Screen size: about 5,500 compounds; about 2,000 (36%) were called active. Inconclusive results (about 18%) are left out. The list shows a part of the results.
Strictly below 1 in normalized growth: 1 (yes). Otherwise: 0 (no).

smilesString: COc1ccc2[nH]cc(CCNC(C)=O)c2c1
assignedCategory: 0 (no)
--
smilesString: CC(C)=CCOc1cc2oc(=O)ccc2cc1O
assignedCategory: 1 (yes)
--
smilesString: CCOc1ccc(Cc2nccc3cc(OCC)c(OCC)cc23)cc1OCC
assignedCategory: 1 (yes)

Continue with the next compound.
Problem: Bench note: check whether `CC(C)=CCOc1c2occc2cc2ccc(=O)oc12` shows normalized growth below 1
Result: 1 (yes)

====

- assayOverview: chemical genetic growth profiling, strain panel (AID 1159580)
- measurementParameters: S. cerevisiae deletion strains, growth OD, locus YLR262C, strain YPT6, stronger effect = lower value
The campaign covered roughly 5,500 compounds. About 2,000 (36%) were called active. Inconclusive results (about 18%) are left out. The list shows a part of the results.
Strictly below 1 in normalized growth: Criterion met. Otherwise: Criterion not met.

As a guide, the following entries are already answered.
compound: COc1ccccc1N1CCN(S(=O)(=O)c2ccc(C(F)(F)F)cc2)CC1
assignedCategory: Criterion met
--
compound: COC(=O)c1csc2c(C(F)(F)F)cc(N3CCN(S(=O)(=O)c4ccc(C)cc4)CC3)nc12
assignedCategory: Criterion not met
--
compound: CCN(CC)CCNC(=O)COc1ccc(OC)cc1
assignedCategory: Criterion not met
--
compound: C[C@]12C=CC(=O)C=C1CCC1C2C(=O)C[C@@]2(C)C1CC[C@]2(O)C(=O)CO (stereo not given in full)
assignedCategory: Criterion met

Problem: Bench note: check whether `O=c1nc(-c2ccccc2)nc(-c2ccccc2)[nH]1` shows normalized growth below 1
Result: Criterion met

====

- assayOverview: chemical genetic growth profiling, strain panel (AID 1159580);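 note: tested at 20 µM; growth read once vehicle control cultures reached saturation at 30 °C; 1 = growth at the plate median or of vehicle wells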
- measurementParameters: S. cerevisiae deletion strains, growth OD, locus YDR226W, strain ADK1
Screen size: about 5,500 compounds; about 2,000 (36%) were called active. Inconclusive results (about 18%) are left out. No stated cut-off is given here; in the data, active means normalized growth mostly below about 0.91 (no sharp cut-off); inconclusive means no clear call, values can overlap the other calls; inactive means mostly above about 0.92. This is one part of the list.
Select the correct class. Options are 1.0 = active, 0.0 = inactive and nothing else.

As a guide, the following entries are already answered.
compound: O=C1OC(Nc2ccccc2SCc2ccccc2Cl)c2ccccc21 (stereo unspecified)
assignedCategory: 0.0
//
compound: Fc1ccc(Nc2nc(-c3ccc(F)c(F)c3)cs2)c(F)c1
assignedCategory: 1.0
//
compound: CC(=O)Oc1ccc2c(=O)c(Oc3ccc(Cl)cc3)c(C)oc2c1
assignedCategory: 0.0

Problem: How did this test come out for `COC(=O)c1ccc(Oc2c(C(F)(F)F)oc3cc(O)ccc3c2=O)cc1` ?
Result: 0.0

Problem: Moving on to `Cc1ccc(C(=O)Nc2ccc3ccccc3n2)cc1`
Result: 0.0

Problem: Moving on to `COc1ccc(/C(C#N)=C2C=C/C(=N/O)C(Cl)=C\2)cc1`
Result: 0.0

====

- assayOverview: chemical genetic growth profiling, strain panel (AID 1159580);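 note: tested at 20 µM; growth read once vehicle control cultures reached saturation at 30 °C; 1 = growth at the plate median or of vehicle wells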
- measurementParameters: S. cerevisiae deletion strains, growth OD, locus YJR016C, strain ILV3
The whole screen tested about 5,500 compounds, of which about 2,000 (36%) were called active. About 18% were inconclusive and are not listed. No stated cut-off is given here; in the data, active means normalized growth mostly below about 0.91 (no sharp cut-off); inconclusive means no clear call, values can overlap the other calls; inactive means mostly above about 0.92. This is one part of the list.
Select the correct class. Options are yes (1) = active, no (0) = inactive and nothing else.

As a guide, the following entries are already answered.
compound: CCCCc1ccc(N=CNO)c(C)c1
assignedCategory: no (0)
--
compound: Cc1c(Cl)cccc1N=C1SCC(=O)N1Cc1ccco1
assignedCategory: no (0)
--
compound: CSc1sc(-c2ccn[nH]2)c(-c2ccccc2)c1C#N
assignedCategory: no (0)
--
compound: O=C(NNc1c(Cl)cccc1Cl)c1ccc([N+](=O)[O-])o1
assignedCategory: no (0)
--
compound: N#Cc1c(N)sc2c1CCc1ccccc1-2
assignedCategory: yes (1)
--
compound: NNC(=O)COc1ccc(C2SCCS2)cc1
assignedCategory: no (0)

Problem: How did this test come out for `Cc1c(C(=O)NCCNc2ccc(C(F)(F)F)cc2[N+](=O)[O-])cnn1-c1ccc(F)cc1` ?
Result: no (0)

Problem: Moving on to `Nc1ccccc1C(=O)N/N=C\c1cc(Cl)cc(Cl)c1O`
Result: no (0)

Problem: Moving on to FC(F)(F)c1ccc(C2Sc3ccccc3N=C3c4ccccc4CC32)cc1 (centres undefined)
Result: no (0)

====

Reported values of normalized growth for individual entries
- assayOverview: chemical genetic growth profiling, strain panel (AID 1159580);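 note: tested at 20 µM; growth read once vehicle control cultures reached saturation at 30 °C; 1 = growth at the plate median or of vehicle wells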
- measurementParameters: S. cerevisiae deletion strains, growth OD, locus YAL026C, strain drs2, stronger effect = lower value
Out of some 5,500 compounds screened, about 2,000 (36%) were called active. About 18% were inconclusive and are not listed. The list shows a part of the results.
Answer field: number only, no words.

Recorded results for 5 molecules are shown here.
molecule: COc1ccc(Cc2nccc3cc(OC)c(OC)cc23)cc1OC
resultType: normalized growth
obsValue: 1

molecule: CC(=O)N[C@@H](CC(=O)O)C(=O)O
resultType: normalized growth
obsValue: 1.01

molecule: CC(=O)OC1CCC23C(=O)OC45CCC(C6=CC(=O)OC6)C4(C)CCC2C5CCC3(O)C1 (configuration not stated)
resultType: normalized growth
obsValue: 0.979

molecule: CC(C)CCCC(C)[C@H]1CCC2C3CC[C@H]4CC(=O)CC[C@]4(C)C3CC[C@@]21C (some centres not stated)
resultType: normalized growth
obsValue: 1

molecule: CCCC(=O)Nc1ncnc2c1ncn2C1O[C@@H]2COP(=O)(O)O[C@H]2[C@H]1OC(=O)CCC (some centres not stated)
resultType: normalized growth
obsValue: 0.986

Problem: Look up normalized growth for this molecule: CC1=C2CCC3C(CC[C@]4(C)C(=O)CCC34)[C@@]2(C)CCC1=O (some centres not stated)
Result: 0.978

Problem: Moving on to `CC1(C)C=Cc2c(cc3occ(-c4ccc5c(c4)OCO5)c(=O)c3c2O)O1`
Result: 0.995

Problem: Moving on to `CN(C)c1nc(N(C)C)nc(N(C)C)n1`
Result: 0.979

Problem: Moving on to `CC(C)=CCc1c(O)cc2occ(-c3ccc4c(c3)OCO4)c(=O)c2c1O`
Result: 0.865

Problem: Moving on to `CCS(=O)(=O)CCn1c([N+](=O)[O-])cnc1C`
Result: 0.995

Problem: Moving on to CC1=C(C(=O)O)N2C(=O)[C@@H](NC(=O)[C@H](N)C3=CCC=CC3)C2SC1 (some centres not stated)
Result: 1.03

Problem: Moving on to `COc1cc(O)c(C(=O)O)c(O)c1`
Result: 0.995

Problem: Moving on to `O=c1cc(-c2ccc(O)cc2)oc2cc(O[C@@H]3O[C@H](CO)[C@@H](O)[C@H](O)[C@H]3O[C@@H]3OC[C@](O)(CO)[C@H]3O)cc(O)c12`
Result: 1

Problem: Moving on to `COc1ccc2c(=O)c(CC(=O)O)coc2c1`
Result: 0.984

Problem: Moving on to `Cc1cccc(N(C)C(=S)Oc2ccc3ccccc3c2)c1`
Result: 0.995

Problem: Moving on to `C=C(C)c1cc2cc(C(C)=O)c(O)cc2o1`
Result: 0.985

Problem: Moving on to C[N+]1(C)CCc2cc3c(cc2[C@H]1C1OC(=O)c2c1ccc1c2OCO1)OCO3 (some centres not stated)
Result: 0.987
